Measured polymerase ribozyme fitness (log ratio) of individual entries
B1: TPR t1 (parent)
chain: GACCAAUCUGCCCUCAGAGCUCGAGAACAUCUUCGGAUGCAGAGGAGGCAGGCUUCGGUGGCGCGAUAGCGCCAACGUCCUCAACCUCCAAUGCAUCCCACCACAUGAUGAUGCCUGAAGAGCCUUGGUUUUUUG

# Variants of: B1
# protocol-details: polymerase ribozyme fitness, log enrichment relative to wild type (log ratio); higher = more active; in vitro selection for triplet polymerase activity
assay-metric: polymerase ribozyme fitness (log ratio)

[
  {
    "changes": "G47U A90G",
    "assay-metric": "polymerase ribozyme fitness (log ratio)",
    "quantitative-result": -0.297
  },
  {
    "changes": "C72U C94A U125A",
    "assay-metric": "polymerase ribozyme fitness (log ratio)",
    "quantitative-result": -1.59
  },
  {
    "changes": "G127U G128A",
    "assay-metric": "polymerase ribozyme fitness (log ratio)",
    "quantitative-result": -2.19
  }
]
